src = patent US11078206B2

- assayed_system: Recombinant purified human JAK3 (Homo sapiens (Human), UniProt P52333)
- Sequence (P52333 whole entry): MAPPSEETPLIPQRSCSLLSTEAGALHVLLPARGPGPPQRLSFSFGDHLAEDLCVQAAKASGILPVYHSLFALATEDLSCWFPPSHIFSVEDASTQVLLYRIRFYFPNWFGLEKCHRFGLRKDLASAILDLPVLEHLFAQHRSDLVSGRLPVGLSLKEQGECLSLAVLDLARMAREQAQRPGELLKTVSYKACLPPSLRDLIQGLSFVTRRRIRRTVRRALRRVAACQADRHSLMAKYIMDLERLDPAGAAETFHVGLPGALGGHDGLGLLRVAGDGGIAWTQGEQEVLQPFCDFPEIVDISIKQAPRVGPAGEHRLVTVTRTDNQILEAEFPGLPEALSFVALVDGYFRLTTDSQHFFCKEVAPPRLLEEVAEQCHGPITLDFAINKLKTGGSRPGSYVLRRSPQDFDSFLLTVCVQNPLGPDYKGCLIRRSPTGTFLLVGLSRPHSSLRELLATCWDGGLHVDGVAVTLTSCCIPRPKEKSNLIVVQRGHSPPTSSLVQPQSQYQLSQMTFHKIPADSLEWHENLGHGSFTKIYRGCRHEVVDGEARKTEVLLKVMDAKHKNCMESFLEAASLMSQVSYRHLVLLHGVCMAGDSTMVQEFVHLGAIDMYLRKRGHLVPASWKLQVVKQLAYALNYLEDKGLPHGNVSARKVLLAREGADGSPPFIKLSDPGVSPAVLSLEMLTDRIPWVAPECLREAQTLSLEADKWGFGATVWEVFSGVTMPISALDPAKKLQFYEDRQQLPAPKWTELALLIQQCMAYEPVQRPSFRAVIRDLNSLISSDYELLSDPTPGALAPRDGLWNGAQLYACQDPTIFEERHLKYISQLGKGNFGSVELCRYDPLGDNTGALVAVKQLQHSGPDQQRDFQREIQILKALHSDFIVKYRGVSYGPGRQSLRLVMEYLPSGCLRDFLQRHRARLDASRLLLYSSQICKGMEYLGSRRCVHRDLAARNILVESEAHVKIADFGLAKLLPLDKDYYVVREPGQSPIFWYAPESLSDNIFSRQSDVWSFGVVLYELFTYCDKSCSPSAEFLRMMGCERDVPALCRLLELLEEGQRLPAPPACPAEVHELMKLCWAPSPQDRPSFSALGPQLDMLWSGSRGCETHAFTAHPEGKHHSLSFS
- assay_notes: JAK3 kinase inhibitory activity (ADP Glo assay)
- test_context: read-out: JAK3 IC50, ATP 5 uM, 1 hour 30° C.
pIC50: −log10 of the molar value.

# compound_structure, pIC50
measured = [
    ("C=CC(=O)N1CC[C@@H](F)[C@@H](Nc2nc(Nc3cnsc3)nc3[nH]cc(Cl)c23)C1", 9.22),
    ("C=CC(=O)N1CC[C@@H](F)[C@@H](Nc2nc(Nc3cnn(CC)c3)nc3[nH]cc(C#N)c23)C1", 9.70),
    ("C=CC(=O)N1CC[C@@H](F)[C@@H](Nc2nc(Nc3cnoc3)nc3[nH]cc(C#N)c23)C1", 9.52),
    ("C=CC(=O)N1CC[C@@H](F)[C@@H](Nc2nc(Nc3cnn(CC)c3)nc3[nH]cc(C)c23)C1", 9.30),
    ("C=CC(=O)N1CC[C@@H](F)[C@@H](Nc2nc(Nc3cnn(CC)c3)nc3[nH]cc(Cl)c23)C1", 10.00),
]
